The following compounds are listed with their measured IC50 values.
Biological target: PKC epsilon (Homo sapiens)
Construct: purchased Invitrogen P2282
Assay: Biochemical assay for PKC epsilon (fluorescence polarization, Protein Kinase C Assay Kit, Red)
Conditions: read-out: IC50 μM PKCε

NC(CNC(=S)Nc1ccccc1)c1ccc(C(=O)Nc2ccncc2)cc1 (stereo not drawn) :: 0.5 to 5 µM
NC(c1ccc(C(=O)Nc2ccncc2)cc1)C1CCCN1C(=O)C1(c2ccc(F)cc2)CCCC1 (stereo not drawn) :: 0.5 to 5 µM

For record NC(c1ccc(C(=O)Nc2ccncc2)cc1)C1CCCN1C(=O)C1CCSc2ccccc21 (stereo not drawn) the listed IC50 is 0.5 to 5 µM

---

Target: PKC epsilon (Homo sapiens, UniProt Q02156)
Construct: purchased Invitrogen P2282
Sequence (Q02156 1-737): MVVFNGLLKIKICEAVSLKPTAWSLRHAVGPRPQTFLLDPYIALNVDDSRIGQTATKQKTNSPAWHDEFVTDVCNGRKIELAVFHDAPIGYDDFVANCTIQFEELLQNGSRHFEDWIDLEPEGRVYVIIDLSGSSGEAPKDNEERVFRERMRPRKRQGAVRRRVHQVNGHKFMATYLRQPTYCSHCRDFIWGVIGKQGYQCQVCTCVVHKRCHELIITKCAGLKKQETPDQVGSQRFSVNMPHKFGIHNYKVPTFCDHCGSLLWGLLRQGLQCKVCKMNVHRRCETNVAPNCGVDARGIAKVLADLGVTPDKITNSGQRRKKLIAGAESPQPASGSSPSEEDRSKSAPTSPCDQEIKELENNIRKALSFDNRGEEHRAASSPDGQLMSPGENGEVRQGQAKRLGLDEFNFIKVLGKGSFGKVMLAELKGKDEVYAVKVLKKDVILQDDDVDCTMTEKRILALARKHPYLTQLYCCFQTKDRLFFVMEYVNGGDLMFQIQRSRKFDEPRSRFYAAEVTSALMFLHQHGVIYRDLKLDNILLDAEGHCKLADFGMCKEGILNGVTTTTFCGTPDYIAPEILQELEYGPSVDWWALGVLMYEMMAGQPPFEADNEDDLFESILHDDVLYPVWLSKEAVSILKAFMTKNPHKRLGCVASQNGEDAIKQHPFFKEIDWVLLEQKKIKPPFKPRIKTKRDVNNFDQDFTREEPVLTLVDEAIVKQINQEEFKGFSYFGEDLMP
Experiment: Biochemical assay for PKC epsilon (fluorescence polarization, Protein Kinase C Assay Kit, Red)
Settings: Table 2, compounds of Formula XIII; read-out: IC50 μM PKCε
readoutName: IC50

Example cases with answers are listed next.
N#Cc1ccc(C(=O)NCC(N)c2ccc(C(=O)Nc3ccncc3)cc2)cc1 (stereo not drawn) :: 5 to 50 µM
CC(C)(C(=O)NCC(N)c1ccc(C(=O)Nc2ccncc2)cc1)c1ccc(F)c(F)c1 (stereo not drawn) :: < 0.05 µM

Record summary for NC(CNC(=O)[C@H]1CCC(=O)N1)c1ccc(C(=O)Nc2ccncc2)cc1 (stereo partly drawn) : reported IC50 = 5 to 50 µM

---

Collected IC50 values appear next to each entry.
Target: human ROCKα/ROCKII mix (Homo sapiens, UniProt O75116)
Construct: purchased Upstate Biotechnology 14-451
Sequence (O75116 11-552 limits assumed): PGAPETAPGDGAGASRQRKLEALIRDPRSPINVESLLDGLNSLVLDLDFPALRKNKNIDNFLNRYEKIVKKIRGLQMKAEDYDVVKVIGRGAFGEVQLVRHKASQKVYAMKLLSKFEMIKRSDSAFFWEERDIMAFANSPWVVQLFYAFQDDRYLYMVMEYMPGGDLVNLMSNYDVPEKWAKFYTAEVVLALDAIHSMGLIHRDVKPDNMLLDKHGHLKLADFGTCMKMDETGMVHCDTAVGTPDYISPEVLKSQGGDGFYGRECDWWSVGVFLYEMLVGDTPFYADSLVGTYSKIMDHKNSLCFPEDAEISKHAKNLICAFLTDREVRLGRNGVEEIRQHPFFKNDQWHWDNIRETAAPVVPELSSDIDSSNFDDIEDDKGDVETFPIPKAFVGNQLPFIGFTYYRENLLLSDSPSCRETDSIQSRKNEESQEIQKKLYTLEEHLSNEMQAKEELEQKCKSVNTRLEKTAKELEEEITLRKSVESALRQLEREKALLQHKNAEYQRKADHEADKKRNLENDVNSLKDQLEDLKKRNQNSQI
Experiment: Biochemical assay for ROCK (fluorescence polarization, ROCK IMAP Kit)
Details: Table 2, compounds of Formula XIII

In the examples that follow, each entry is paired with its recorded IC50.
NC(CNC(=O)C1CCSc2ccccc21)c1ccc(C(=O)Nc2ccncc2)cc1 (stereo not drawn) :: 0.05 to 0.5 µM
NC(CNC(=O)c1csc(Nc2ccc(F)cc2)n1)c1ccc(C(=O)Nc2ccncc2)cc1 (stereo not drawn) :: 0.5 to 5 µM
NC(CNC(=O)Cc1cccs1)c1ccc(C(=O)Nc2ccncc2)cc1 (stereo not drawn) :: 0.05 to 0.5 µM
CC(C)(C(=O)NCC(N)c1ccc(C(=O)Nc2ccncc2)cc1)c1ccc(F)c(Cl)c1 (stereo not drawn) :: 0.05 to 0.5 µM
CCCCC(=O)NCC(N)c1ccc(C(=O)Nc2ccncc2)cc1 (stereo not drawn) :: 0.5 to 5 µM

Data point: COCC(=O)NCC(N)c1ccc(C(=O)Nc2ccncc2)cc1 (stereo not drawn) ; IC50 = 0.5 to 5 µM

Per the record, NC(CNC(=O)c1cccc(Cn2cccn2)c1)c1ccc(C(=O)Nc2ccncc2)cc1 (stereo not drawn) has IC50 of 0.5 to 5 µM

Briefly, IC50 measured for NC(CNC(=O)Cc1cccc(Cl)c1)c1ccc(C(=O)Nc2ccncc2)cc1 (stereo not drawn) : 0.05 to 0.5 µM

Entry CC(C)CCC(=O)NCC(N)c1ccc(C(=O)Nc2ccncc2)cc1 (stereo not drawn) , IC50 reported as 0.5 to 5 µM

// sample CCOCC(=O)NCC(N)c1ccc(C(=O)Nc2ccncc2)cc1 (stereo not drawn) , its IC50 was 0.5 to 5 µM

// IC50 value for CCSCC(=O)NCC(N)c1ccc(C(=O)Nc2ccncc2)cc1 (stereo not drawn) : 0.05 to 0.5 µM

Summary for this compound, NC(CNC(=O)Cc1ccc2c(c1)OCO2)c1ccc(C(=O)Nc2ccncc2)cc1 (stereo not drawn) : IC50 is 0.05 to 0.5 µM

The compound listed as NC(CNC(=O)c1ccc(F)cc1)c1ccc(C(=O)Nc2ccncc2)cc1 (stereo not drawn) shows IC50 equal to 0.5 to 5 µM

Per the record, NC(CNC(=O)CC1CCCC1)c1ccc(C(=O)Nc2ccncc2)cc1 (stereo not drawn) has IC50 of 0.5 to 5 µM

Sample CCC(Oc1ccccc1)C(=O)NCC(N)c1ccc(C(=O)Nc2ccncc2)cc1 (stereo not drawn) ; IC50 observed: 0.05 to 0.5 µM
